# GI50 per record follows
# System: HCT-116
# assay protocol: NCI tumour cell line growth inhibition, 48 h
Calls of active or inactive are those of the source. Rule as the data show it: active = GI50 up to about 1.1 µM and inactive = higher. Numbered stars: 1 amine (or outer) side, 2 acyl side, 3 side chain; on linkers, the order of the positions; unused ones are H or OH. Bridge positions count the residues as written; N and C are the ends. Square brackets hold non-standard residues; d marks the D form. Peptide text beside a SMILES is read from it. X58 = COc1c(N[*:1])cccc1C(=O)O[C@H](C(=O)[C@H](C)C(=O)[*:2])C(C)C; X57 = CC(C)C[C@H](C(=O)[*:2])C(C)C(=O)C1CCCN1[*:1]; NMeY = CN[C@@H](Cc1ccc(O)cc1)C(=O)O; Lac = C[C@H](O)C(=O)O

Example results:
| compound | endpoint value |
| --- | --- |
| COc1ccc(C[C@H]2C(=O)O[C@H](C)[C@H](NC(=O)[C@@H](CC(C)C)C(C)C(=O)C3CCCN3C(=O)[C@H](C)O)C(=O)Nc3cccc(c3OC)C(=O)O[C@@H](C(C)C)C(=O)[C@H](C)C(=O)N[C@@H](CC(C)C)C(=O)N3CCC[C@H]3C(=O)N2C)cc1 (stereo not given in full) (H-[Lac][X57]T[X58]LP[NMeY](Me); ester 3-C) | 6.12 µM (inactive) |
| C=CC(=O)Nc1ccc(NC(=O)C=C)c2c1C(=O)c1ccccc1C2=O | 62.8 µM (inactive) |
| O=C(C=C1SCCS1)/C=C\c1ccc(Cl)cc1 | > 100 µM (inactive) |

Reported GI50 ( Cc1cc(NS(=O)(=O)c2ccc(Nc3c4ccccc4nc4c(C(=O)N5CCN(CCO)CC5)cccc34)cc2)no1 ) = > 100 µM (inactive)

GI50 reading for COC(=O)c1ccc2c(c1)S/C(=C/c1ccc3ccc4cccc5ccc1c3c45)S2 : 95.9 µM (inactive)

Value of GI50 reported for the compound COC(C)C(O)(C(=O)OCC1=CCN2CCC(O)C12)C(C)(C)O (stereo not given) is > 100 µM (inactive)

The compound COc1cc2c(cc1OC)C(=O)/C(=C/c1ccc(Cl)cc1)CC2 showed GI50 equal to > 10 µM (inactive)

Item: Cn1c(=O)[nH]c2[nH]c3ccccc3c2c1=O | GI50: > 100 µM (inactive)

Per the record, O=C(NCCCCCCNC(=O)n1cc(F)c(=O)[nH]c1=O)NCCCOCCOCCCNC(=O)C(O)C(O)C(O)C(O)CO (stereo not given) has GI50 of > 2.05 µM (inactive)

Form: compound = COC1C=C(Nc2cccc(Cl)c2)C(=O)C1 (stereo not given) ; GI50 = 40.2 µM (inactive)
